System: Phocaeicola vulgatus
EXPERIMENTAL_DETAILS: Antibacterial activity against beta-lactamase producing Bacteroides vulgatus assessed as resistant isolates by CLSI agar dilution method
Type: functional
The compounds listed here are annotated with their Activity.
Write the answer as a number in %, unit excluded.

Observe how each entry below is paired with its result.
>>> df
                           structure_smiles  measurement_label  result
0  CCC[C@@H]1C[C@@H](C(=O)N[C@@H]([C@H]2O[C@H](SC)[C@H](O)[C@@H](O)[C@H]2O)[C@H](C)Cl)N(C)C1           Activity      39
1  C[C@@H](O)[C@H]1C(=O)N2C(C(=O)O)=C(S[C@@H]3CN[C@H](CNS(N)(=O)=O)C3)[C@H](C)[C@H]12           Activity       4

Now examine the next entry.
q: Can you look up Activity on Phocaeicola vulgatus for CC1(C)S[C@@H]2[C@H](NC(=O)Cc3ccccc3)C(=O)N2[C@H]1C(=O)O ?
a: 100

###

System: Clostridium septicum
EXPERIMENTAL_DETAILS: Antibacterial activity against beta-lactamase producing Clostridium septicum by CLSI agar dilution method
Type: functional
The molecules listed here are annotated with their MIC50.
# answer = value followed by unit

Observe how each entry below is paired with its result.
>>> df
                           structure_smiles  measurement_label      result
0  CCC[C@@H]1C[C@@H](C(=O)N[C@@H]([C@H]2O[C@H](SC)[C@H](O)[C@@H](O)[C@H]2O)[C@H](C)Cl)N(C)C1              MIC50     1 µg/mL
1  C[C@@H](O)[C@H]1C(=O)N2C(C(=O)O)=C(S[C@@H]3CN[C@H](CNS(N)(=O)=O)C3)[C@H](C)[C@H]12              MIC50  0.03 µg/mL

q: Quick check: MIC50 of CCN1CCN(C(=O)N[C@@H](C(=O)N[C@@H]2C(=O)N3[C@@H]2SC(C)(C)[C@@H]3C(=O)O)c2ccccc2)C(=O)C1=O ?
a: 0.25 µg/mL

q: Quick check: MIC50 of CC1(C)S[C@@H]2[C@H](NC(=O)Cc3ccccc3)C(=O)N2[C@H]1C(=O)O ?
a: 0.25 µg/mL

q: Quick check: MIC50 of C[C@@H](O)[C@H]1C(=O)N2C(C(=O)O)=C(S[C@@H]3CN[C@H](C(=O)Nc4cccc(C(=O)O)c4)C3)[C@H](C)[C@H]12 ?
a: 0.12 µg/mL

q: Quick check: MIC50 of C[C@H]1COc2c(N3CCN(C)CC3)c(F)cc3c(=O)c(C(=O)O)cn1c23.C[C@H]1COc2c(N3CCN(C)CC3)c(F)cc3c(=O)c(C(=O)O)cn1c23.O ?
a: 0.5 µg/mL

q: Quick check: MIC50 of Cc1ncc([N+](=O)[O-])n1CCO ?
a: 8 µg/mL

###

Tested on: Fusobacterium nucleatum
EXPERIMENTAL_DETAILS: Antibacterial activity against Fusobacterium nucleatum by CLSI agar dilution method
Assay type: functional
MEASUREMENT_LABEL: MIC90 (µg/mL)
Write the answer as a number in µg/mL, unit excluded.

>>> df
                                   compound    uom  result
0  O=C(N[C@H](CO)[C@H](O)c1ccc([N+](=O)[O-])cc1)C(Cl)Cl  µg/mL       2
1  C[C@@H](O)[C@H]1C(=O)N2C(C(=O)O)=C(S[C@@H]3CN[C@H](CNS(N)(=O)=O)C3)[C@H](C)[C@H]12  µg/mL    0.25
2  C[C@H]1COc2c(N3CCN(C)CC3)c(F)cc3c(=O)c(C(=O)O)cn1c23.C[C@H]1COc2c(N3CCN(C)CC3)c(F)cc3c(=O)c(C(=O)O)cn1c23.O  µg/mL       4

Now examine the next entry.
q: Quick check: MIC90 of Cc1ncc([N+](=O)[O-])n1CCO ?
a: 1

###

Test system: Fusobacterium varium
EXPERIMENTAL_DETAILS: Antibacterial activity against Fusobacterium varium assessed as susceptible isolates by CLSI agar dilution method
Format: functional
The compounds listed here are annotated with their Activity.
Write the answer as a number in %, unit excluded.

>>> print(df.to_string())
                           structure_smiles          study_target  uom  result
0  CC1(C)S[C@@H]2[C@H](NC(=O)Cc3ccccc3)C(=O)N2[C@H]1C(=O)O  Fusobacterium varium    %      85
1  CCN1CCN(C(=O)N[C@@H](C(=O)N[C@@H]2C(=O)N3[C@@H]2SC(C)(C)[C@@H]3C(=O)O)c2ccccc2)C(=O)C1=O  Fusobacterium varium    %      90
2  CCC[C@@H]1C[C@@H](C(=O)N[C@@H]([C@H]2O[C@H](SC)[C@H](O)[C@@H](O)[C@H]2O)[C@H](C)Cl)N(C)C1  Fusobacterium varium    %      85
3                 Cc1ncc([N+](=O)[O-])n1CCO  Fusobacterium varium    %     100
4  C[C@@H](O)[C@H]1C(=O)N2C(C(=O)O)=C(S[C@@H]3CN[C@H](C(=O)Nc4cccc(C(=O)O)c4)C3)[C@H](C)[C@H]12  Fusobacterium varium    %     100

q: Quick check: Activity of C[C@@H](O)[C@H]1C(=O)N2C(C(=O)O)=C(S[C@@H]3CN[C@H](CNS(N)(=O)=O)C3)[C@H](C)[C@H]12 ?
a: 100

q: Quick check: Activity of CO[C@@]1(NC(=O)CSCC#N)C(=O)N2C(C(=O)O)=C(CSc3nnnn3C)CS[C@@H]21 ?
a: 100

###

Tested on: Prevotella intermedia
EXPERIMENTAL_DETAILS: Antibacterial activity against Prevotella intermedia assessed as resistant isolates by CLSI agar dilution method
Type: functional
MEASUREMENT_LABEL: Activity (%)
Write the answer as a number in %, unit excluded.

In [3]: df
Out[3]:
                                   compound           study_target  uom  result
0  CCC[C@@H]1C[C@@H](C(=O)N[C@@H]([C@H]2O[C@H](SC)[C@H](O)[C@@H](O)[C@H]2O)[C@H](C)Cl)N(C)C1 [CLINDAMYCIN]  Prevotella intermedia    %      31
1  CO[C@@]1(NC(=O)CSCC#N)C(=O)N2C(C(=O)O)=C(CSc3nnnn3C)CS[C@@H]21 [CEFMETAZOLE]  Prevotella intermedia    %       6

Now examine the next entry.
q: Quick check: Activity of CC1(C)S[C@@H]2[C@H](NC(=O)Cc3ccccc3)C(=O)N2[C@H]1C(=O)O [PENICILLIN G] ?
a: 95

###

The compounds listed here are annotated with their Activity.
Tested on: Peptoniphilus asaccharolyticus
EXPERIMENTAL_DETAILS: Antibacterial activity against beta-lactamase producing Peptoniphilus asaccharolyticus assessed as resistant isolates by CLSI agar dilution method
Type: functional
Write the answer as a number in %, unit excluded.

Observe how each entry below is paired with its result.
                                   compound  result
0  CO[C@@]1(NC(=O)CSCC#N)C(=O)N2C(C(=O)O)=C(CSc3nnnn3C)CS[C@@H]21 [CEFMETAZOLE]       0
1  C[C@@H](O)[C@H]1C(=O)N2C(C(=O)O)=C(S[C@@H]3CN[C@H](C(=O)N(C)C)C3)[C@H](C)[C@H]12 [MEROPENEM]       0
2  C[C@@H](O)[C@H]1C(=O)N2C(C(=O)O)=C(S[C@@H]3CN[C@H](CNS(N)(=O)=O)C3)[C@H](C)[C@H]12 [DORIPENEM]       0
3  O=C(N[C@H](CO)[C@H](O)c1ccc([N+](=O)[O-])cc1)C(Cl)Cl [CHLORAMPHENICOL]       6

q: Quick check: Activity of Cc1ncc([N+](=O)[O-])n1CCO [METRONIDAZOLE] ?
a: 9

q: Quick check: Activity of C[C@@H](O)[C@H]1C(=O)N2C(C(=O)O)=C(S[C@@H]3CN[C@H](C(=O)Nc4cccc(C(=O)O)c4)C3)[C@H](C)[C@H]12 ?
a: 0

q: Quick check: Activity of C[C@@H](O)[C@H]1C(=O)N2C(C(=O)O)=C(SCCNC=N)C[C@H]12 [IMIPENEM ANHYDROUS] ?
a: 0

q: Quick check: Activity of CCN1CCN(C(=O)N[C@@H](C(=O)N[C@@H]2C(=O)N3[C@@H]2SC(C)(C)[C@@H]3C(=O)O)c2ccccc2)C(=O)C1=O [PIPERACILLIN] ?
a: 3

q: Quick check: Activity of CCC[C@@H]1C[C@@H](C(=O)N[C@@H]([C@H]2O[C@H](SC)[C@H](O)[C@@H](O)[C@H]2O)[C@H](C)Cl)N(C)C1 [CLINDAMYCIN] ?
a: 9

Every entry's value here was drawn from ChEMBL document CHEMBL1671627.
